All values here come from PubChem BioAssay AID2060617.

Test system: 485368-065-R4-J2-PDC spheroids with HUVEC/MSC, viability;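 also: spheroids exposed to compounds for seven days; 100% = DMSO vehicle control wells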
Test: Anticancer human tumor 485368-065-R4-J2-PDC patient-derived pancreatic carcinoma cell line growth inhibition [CLK]
Settings: second compound 0.0316 µM; first compound 0.0316 µM; active compounds read low
reportedMetric: viability, T/C (%)
The reply should be a number in %, with the unit left off.

[[record]]
compound = "COc1c(OCCCN2CCOCC2)ccc2c3n(c(=NC(=O)c4cnc(N)nc4)nc12)CCN3 + CN1CCN(c2cc(C(=O)Nc3cc4cc(-c5cnn(C)c5)ccc4cn3)ccn2)CC1"
measurement = 85.8


Now for another entry.
## Task Need viability, T/C, item CC1(C)CCC(CN2CCN(c3ccc(C(=O)NS(=O)(=O)c4ccc(NCC5CCOCC5)c([N+](=O)[O-])c4)c(Oc4cnc5[nH]ccc5c4)c3)CC2)=C(c2ccc(Cl)cc2)C1 + CNC(=O)c1ccc(Nc2nc(OC3CCCC3)c3c(-c4ccc5nc(C)oc5c4)c[nH]c3n2)c(OC)c1
## Result 101
